# tested-system: recombinant human sialidase NEU3 (Homo sapiens, UniProt Q9UQ49)
# Construct: purchased Origene TP316537
# Sequence (Q9UQ49 1-428): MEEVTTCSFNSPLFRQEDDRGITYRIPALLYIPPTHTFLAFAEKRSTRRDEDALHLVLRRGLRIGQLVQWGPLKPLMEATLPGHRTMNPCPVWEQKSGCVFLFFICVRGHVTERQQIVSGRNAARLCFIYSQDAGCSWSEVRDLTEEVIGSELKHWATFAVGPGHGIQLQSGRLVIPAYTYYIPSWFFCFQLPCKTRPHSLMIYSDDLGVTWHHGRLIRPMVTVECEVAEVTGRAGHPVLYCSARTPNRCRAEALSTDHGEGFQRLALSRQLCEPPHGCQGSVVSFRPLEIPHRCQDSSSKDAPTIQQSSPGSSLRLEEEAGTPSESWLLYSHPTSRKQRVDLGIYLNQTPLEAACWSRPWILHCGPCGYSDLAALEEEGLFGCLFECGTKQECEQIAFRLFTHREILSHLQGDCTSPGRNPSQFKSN
# test-description: NEU3-catalyzed L-TGF-β1 activation (TGF-β1 release/concentration assay, active TGF-β1 ELISA)
# Assay type: biochemical
# cond: recombinant human NEU3, L-TGF-β1, PBS pH 6.9, 2 hours 37° C.; read-out: IC50, inhibits human NEU3 in the TGF-β1 concentration assay
assay-endpoint: log10 IC50 (log10 of the value in nM)

compound: NC(=O)c1ccccn1 [Compound 10, picolinamide]
log10 IC50: 1.34

compound: O=[N+]([O-])c1ccccn1
log10 IC50: 1.60

compound: O=C(O)c1cccnc1
log10 IC50: -1.96

compound: O=C(O)c1cccc(CO)n1 [Compound 17, 6-(hydroxymethyl) picolinic acid]
log10 IC50: -1.30

compound: O=C(O)C1CCCCCN1 (centres unmarked)
log10 IC50: 0.38

###

# tested-system: recombinant human sialidase NEU3 (Homo sapiens)
# Construct: purchased Origene TP316537
# test-description: NEU3-catalyzed L-TGF-β1 activation (TGF-β1 release/concentration assay, active TGF-β1 ELISA)
# Type: biochemical
# cond: recombinant human NEU3, L-TGF-β1, PBS pH 6.9, 2 hours 37° C.; read-out: IC50, inhibits human NEU3 in the TGF-β1 concentration assay
pIC50: −log10 of the molar value.

compound: Nc1ccc(C(=O)O)nc1
operator: =
pIC50: 7.40
//
compound: CN1CCC(N)CC1C(=O)O (stereo not drawn)
operator: >
pIC50: 11.00
//
compound: Nc1ccncc1C(=O)O
operator: =
pIC50: 8.30
//
compound: CC(=O)c1ccccn1
operator: =
pIC50: 7.38
//
compound: Nc1ccnc(C(=O)O)c1
operator: =
pIC50: 8.40
//
compound: CCOC(=O)C1=C[C@@H](OC(CC)CC)[C@H](NC(C)=O)[C@@H](N)C1 [Compound 28, oseltamivir, reference compound]
operator: =
pIC50: 6.24
//
compound: O=C(O)c1ccc([N+](=O)[O-])cn1
operator: =
pIC50: 7.37
//
compound: COC(=O)c1ccccn1 [Compound 6, methyl picolinate]
operator: =
pIC50: 10.85
//
compound: NC1CCNC(C(=O)O)C1 (stereo not drawn)
operator: =
pIC50: 8.70
//
compound: O=C(O)[C@H]1CCCN1
operator: =
pIC50: 7.20
//
compound: CC(=O)Nc1ccc(C(=O)O)nc1
operator: =
pIC50: 7.96
//
compound: COc1ccnc(C(=O)O)c1
operator: =
pIC50: 8.49
//
compound: O=C(O)[C@@H]1CCCCN1
operator: =
pIC50: 9.31
//
compound: O=C(O)c1ccccn1
operator: >
pIC50: 11.00
//
compound: Cc1cccc(C(=O)O)n1
operator: >
pIC50: 11.00

###

Each record here notes measured pIC50.
# tested-system: recombinant human sialidase NEU3 (Homo sapiens)
# Construct: purchased Origene TP316537
# test-description: NEU3-catalyzed L-TGF-β1 activation (TGF-β1 release/concentration assay, active TGF-β1 ELISA)
# Assay type: biochemical
# cond: recombinant human NEU3, L-TGF-β1, PBS pH 6.9, 2 hours 37° C.; read-out: IC50, inhibits human NEU3 in the TGF-β1 concentration (release) assay
pIC50: −log10 of the molar value.

compound: NOC1CCCCO1 (stereo not shown) [Compound 16]
pIC50: 5.59

compound: Cc1ccnc(C(=O)O)c1 [Compound 22, 4-methylpicolinic acid]
pIC50: 6.89

compound: O=C(O)C1=CCCCN1 [Compound 12]
pIC50: 3.92

compound: CC(=O)N[C@@H]1C(O)C=C(C(=O)O)O[C@H]1[C@H](O)[C@H](O)CO (stereo partly shown) [Compound 1, DANA]
pIC50: 3.60

compound: CN1CCCCC1C(=O)O (stereo not shown) [Compound 20, 1-methyl-2-piperidine carboxylic acid]
pIC50: 6.30

compound: O=C(O)c1ccccc1O [Compound 15, salicylic acid]
pIC50: 5.74

compound: O=C(O)c1ccc[nH]1 [Compound 30, pyrrole-2-carboxylic acid]
pIC50: 3.79
